Each recorded value in this set is attributed to patent US20250250357A1.

Reported OD450 values for the following binders.
target: T1, human MSLN-R3-his protein (human, UniProt Q13421 487-598); assay: ELISA, coated antigen; antibody 0.1 nM
T1 construct: also called human MSLN-R3 protein; hMSLN-R3-his; not shown: His tag
T1 sequence (Q13421 495-606): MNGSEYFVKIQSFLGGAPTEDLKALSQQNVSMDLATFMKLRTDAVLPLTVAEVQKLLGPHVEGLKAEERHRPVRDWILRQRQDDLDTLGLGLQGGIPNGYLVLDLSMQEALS

>  <binder>
S009-F3.16.1 (antibody, human IgG1, kappa, V domains shown, Human-murine chimeric antibody, human IgG1/kappa constant regions) VH: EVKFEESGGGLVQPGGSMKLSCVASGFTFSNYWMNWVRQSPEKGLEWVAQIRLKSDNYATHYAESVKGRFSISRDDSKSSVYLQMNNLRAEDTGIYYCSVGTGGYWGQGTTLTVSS VL: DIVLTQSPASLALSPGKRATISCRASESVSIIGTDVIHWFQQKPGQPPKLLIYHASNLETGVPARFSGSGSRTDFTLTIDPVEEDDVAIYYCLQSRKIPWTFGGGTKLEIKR

>  <OD450, OD450>
1.61

$$$$
>  <binder>
S009-F3.80.22 (antibody, human IgG1, kappa, V domains shown, Human-murine chimeric antibody, human IgG1/kappa constant regions) VH: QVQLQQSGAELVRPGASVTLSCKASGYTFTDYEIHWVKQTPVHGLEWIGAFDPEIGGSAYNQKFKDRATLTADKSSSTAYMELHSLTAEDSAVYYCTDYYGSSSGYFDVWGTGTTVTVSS VL: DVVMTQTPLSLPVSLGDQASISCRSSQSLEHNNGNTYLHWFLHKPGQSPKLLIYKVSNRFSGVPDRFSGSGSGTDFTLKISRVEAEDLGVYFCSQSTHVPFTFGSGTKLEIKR

>  <OD450, OD450>
1.55

$$$$
